- assayed system: Aldehyde dehydrogenase, mitochondrial (Homo sapiens)
- Sequence (P05091 whole entry): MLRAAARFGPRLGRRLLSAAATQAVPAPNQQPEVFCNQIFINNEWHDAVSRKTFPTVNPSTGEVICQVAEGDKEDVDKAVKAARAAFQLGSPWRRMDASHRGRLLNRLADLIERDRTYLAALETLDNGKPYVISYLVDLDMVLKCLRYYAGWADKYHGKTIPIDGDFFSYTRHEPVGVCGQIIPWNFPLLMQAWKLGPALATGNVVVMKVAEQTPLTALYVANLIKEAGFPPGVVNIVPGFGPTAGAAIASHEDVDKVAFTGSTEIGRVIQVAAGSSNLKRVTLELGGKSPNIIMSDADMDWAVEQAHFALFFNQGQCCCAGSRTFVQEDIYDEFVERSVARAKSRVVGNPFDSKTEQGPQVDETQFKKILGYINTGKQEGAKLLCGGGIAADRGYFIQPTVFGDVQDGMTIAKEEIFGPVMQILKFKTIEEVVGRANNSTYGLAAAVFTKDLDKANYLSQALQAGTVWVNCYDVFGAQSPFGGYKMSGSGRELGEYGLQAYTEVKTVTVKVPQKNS
measurement type: IC50 (µM)
Answers are plain numbers, in µM.

query: # returns recorded IC50 (system: Aldehyde dehydrogenase, mitochondrial (Homo sapiens)) for Cc1cccc(C)c1C(=O)NCc1ccc(C2CCNC(=O)C2)cc1 (stereo unspecified) [US9610299, Example 6]
result: 1.11
